TEST_SYSTEM: UniProtKB P37231
Sequence (P37231 203-477 isoform P37231-2): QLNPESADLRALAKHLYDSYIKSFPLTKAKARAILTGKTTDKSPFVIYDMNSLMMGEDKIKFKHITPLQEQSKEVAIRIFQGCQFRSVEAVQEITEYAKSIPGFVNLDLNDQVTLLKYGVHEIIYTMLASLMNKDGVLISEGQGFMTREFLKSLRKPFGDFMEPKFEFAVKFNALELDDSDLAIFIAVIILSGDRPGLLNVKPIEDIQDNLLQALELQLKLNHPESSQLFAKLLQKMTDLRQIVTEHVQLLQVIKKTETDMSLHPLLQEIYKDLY
pKi: −log10 of the molar value.
PROPERTY_MEASURED: pKi

Consider the molecule shown here: Cc1oc(-c2ccccc2)nc1CCC(=O)c1ccc(CC2SC(=O)NC2=O)cc1 (stereo not shown) What is its recorded pKi?
≥ 9.00
